- Tested on: 945468-187-T-J2-PDC spheroids viability
- TEST_NAME: Anticancer human tumor 945468-187-T-J2-PDC patient-derived rectal carcinoma cell line growth inhibition [PI3K]
- SETTINGS: second compound 0.0316 µM; first compound 0.0316 µM; hits give low values; spheroids with HUVEC and MSC
- Text: Combinatorial screen of targeted agents with the PI3K inhibitors inavolisib, alpelisib, duvelisib, and copanlisib in multi-cell type tumor spheroids A high-throughput screen of multi-cell type tumor spheroids was designed to identify active combinations of targeted small molecules and PI3K pathway inhibitors. […] Compounds. […] If the clinical Cmax for an agent had not been determined, the highest concentration tested was 10 microM. […]
Here the recorded viability, T/C is given for each entry.
Answer with a number only, understood to be in %.

[
  {
    "COMPOUND": "Cn1ncc(Cl)c1-c1cc(C(=O)NC(CN)Cc2cccc(F)c2)sc1Cl (stereo not given) + Cc1nc(NC(=O)N2CCCC2C(N)=O)sc1-c1ccnc(C(C)(C)C(F)(F)F)c1",
    "viability, T/C, %": 94
  },
  {
    "COMPOUND": "CC(=O)c1c(C)c2cnc(Nc3ccc(N4CCNCC4)cn3)nc2n(C2CCCC2)c1=O + CC(Nc1ncnc2nc[nH]c12)c1cc2cccc(Cl)c2c(=O)n1-c1ccccc1",
    "viability, T/C, %": 90
  },
  {
    "COMPOUND": "C=CC(=O)N1CCN(c2nc(=O)n(-c3c(C)ccnc3C(C)C)c3nc(-c4c(O)cccc4F)c(F)cc23)C(C)C1 (stereo not given) + CC(Nc1ccc2c(c1)OCCn1cc(N3C(=O)OCC3C(F)F)nc1-2)C(N)=O",
    "viability, T/C, %": 124
  },
  {
    "COMPOUND": "C[C@@H](NC(=O)c1ncnc(N)c1Cl)c1ncc(C(=O)Nc2cc(C(F)(F)F)c(Cl)cn2)s1 + COc1c(OCCCN2CCOCC2)ccc2c3n(c(=NC(=O)c4cnc(N)nc4)nc12)CCN3",
    "viability, T/C, %": 108
  }
]

Consider the record given below.
Given the compound CC1(C)CCC(Nc2ncc(C(F)(F)F)c(-c3c[nH]c4c(P(C)(C)=O)c(C#N)ccc34)n2)CN1 (stereo not given) + CC(Nc1ccc2c(c1)OCCn1cc(N3C(=O)OCC3C(F)F)nc1-2)C(N)=O and test system 945468-187-T-J2-PDC spheroids viability, the measured viability, T/C is 82.2

###

- Test system: 945468-187-T-J2-PDC spheroids viability
- TEST_NAME: Anticancer human tumor 945468-187-T-J2-PDC cell line growth inhibition [PI3K];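 also: spheroids exposed to compounds for seven days before reading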
- SETTINGS: second compound 0.1 µM; first compound 0.001 µM; hits give low values; spheroids with HUVEC and MSC
Here the recorded viability, T/C is given for each entry.
Answer with a number only, understood to be in %.

[
  {
    "COMPOUND": "CC(=O)c1c(C)c2cnc(Nc3ccc(N4CCNCC4)cn3)nc2n(C2CCCC2)c1=O + COc1c(OCCCN2CCOCC2)ccc2c3n(c(=NC(=O)c4cnc(N)nc4)nc12)CCN3",
    "MEASUREMENT_UNITS": "%",
    "RESULT_VALUE": 101
  },
  {
    "COMPOUND": "Cn1ncnc1[C@H]1c2n[nH]c(=O)c3cc(F)cc(c23)N[C@@H]1c1ccc(F)cc1 + COc1c(OCCCN2CCOCC2)ccc2c3n(c(=NC(=O)c4cnc(N)nc4)nc12)CCN3",
    "MEASUREMENT_UNITS": "%",
    "RESULT_VALUE": 75.7
  },
  {
    "COMPOUND": "CC(C)n1nc(-c2ccc3oc(N)nc3c2)c2c(N)ncnc21 + Cc1nc(NC(=O)N2CCCC2C(N)=O)sc1-c1ccnc(C(C)(C)C(F)(F)F)c1",
    "MEASUREMENT_UNITS": "%",
    "RESULT_VALUE": 77.7
  },
  {
    "COMPOUND": "CC(C)n1nc(-c2ccc3oc(N)nc3c2)c2c(N)ncnc21 + CC(Nc1ncnc2nc[nH]c12)c1cc2cccc(Cl)c2c(=O)n1-c1ccccc1",
    "MEASUREMENT_UNITS": "%",
    "RESULT_VALUE": 94.3
  },
  {
    "COMPOUND": "CC(C)n1nc(-c2ccc3oc(N)nc3c2)c2c(N)ncnc21 + COc1c(OCCCN2CCOCC2)ccc2c3n(c(=NC(=O)c4cnc(N)nc4)nc12)CCN3",
    "MEASUREMENT_UNITS": "%",
    "RESULT_VALUE": 76.2
  }
]

Consider the record given below.
In plain terms, CC(=O)c1c(C)c2cnc(Nc3ccc(N4CCNCC4)cn3)nc2n(C2CCCC2)c1=O + Cc1nc(NC(=O)N2CCCC2C(N)=O)sc1-c1ccnc(C(C)(C)C(F)(F)F)c1 has a documented viability, T/C of 84.2
